# MEASURED_TARGET: Neuropilin-1 (Homo sapiens)
# TEST_PROTOCOL: NRP-1 b1b2 CendR peptide binding inhibitors, dose response, biochemical, FP and AlphaScreen panel (AID 651650)
# MEASUREMENT_CONTEXT: NRP-1 b1b2 / RPARPAR peptide binding, FP or AlphaScreen; AlphaScreen, mean of runs
Activity calls are given as the source filed them.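 Rule for the calls: active = mean IC50 below 20 µM in each of the two panels, so potent in both; inactive = the rest.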
Labels: 1 for active, 0 for inactive

MOLECULE: C=C1CCN(C(C(=O)OC)C(C)C)S(=O)(=O)c2ccc(F)cc21 (centres undefined)
MEASURED_TARGET: Neuropilin-1 (Homo sapiens)
ASSIGNED_CATEGORY: 0

MOLECULE: Cc1nc2c(OCCC3CCCCC3)cccn2c1N(C)C(=O)CCC1CCCC1
MEASURED_TARGET: Neuropilin-1 (Homo sapiens)
ASSIGNED_CATEGORY: 0

MOLECULE: O=Cc1ccc(-c2ccccc2C(=O)O)o1
MEASURED_TARGET: Neuropilin-1 (Homo sapiens)
ASSIGNED_CATEGORY: 0

MOLECULE: Cc1occc1C(=O)N1N=C(C2CC2)CC1(O)C(F)(F)F (centres undefined)
MEASURED_TARGET: Neuropilin-1 (Homo sapiens)
ASSIGNED_CATEGORY: 0

MOLECULE: C[C@@H](NC(=O)c1nc[nH]c1C(=O)NCc1ccccc1)c1ccccc1
MEASURED_TARGET: Neuropilin-1 (Homo sapiens)
ASSIGNED_CATEGORY: 0

MOLECULE: CCOC(=O)c1ccc(NC(=O)CN2CCc3ccccc3C2)cc1
MEASURED_TARGET: Neuropilin-1 (Homo sapiens)
ASSIGNED_CATEGORY: 0

MOLECULE: CCCCc1ccc(S(=O)(=O)N2CCC3(CC2)OCCO3)cc1
MEASURED_TARGET: Neuropilin-1 (Homo sapiens)
ASSIGNED_CATEGORY: 0

MOLECULE: O=C(c1ccc(-c2cccc(C(F)(F)F)c2)o1)N1CCCC(C(F)(F)F)C1 (centres undefined)
MEASURED_TARGET: Neuropilin-1 (Homo sapiens)
ASSIGNED_CATEGORY: 0

MOLECULE: Cc1csc(NC(C)c2nc3cc(C(F)(F)F)ccc3n2CCCO)n1 (centres undefined)
MEASURED_TARGET: Neuropilin-1 (Homo sapiens)
ASSIGNED_CATEGORY: 1

MOLECULE: CC(C)(C)OC(=O)N1CCC(NC(=O)c2nc[nH]c2C(=O)N2CCc3ccccc3C2)CC1
MEASURED_TARGET: Neuropilin-1 (Homo sapiens)
ASSIGNED_CATEGORY: 0

MOLECULE: O=C(c1cccc(F)c1)N1CCN(c2ccc([N+](=O)[O-])c(N3CCCCC3)c2)CC1
MEASURED_TARGET: Neuropilin-1 (Homo sapiens)
ASSIGNED_CATEGORY: 0

MOLECULE: COc1ccc(CCNC(=O)c2c(O)c3cccc4c3n(c2=O)CC4)cc1OC
MEASURED_TARGET: Neuropilin-1 (Homo sapiens)
ASSIGNED_CATEGORY: 0

MOLECULE: Cc1cccc(-c2noc(CSc3ccccc3)n2)c1
MEASURED_TARGET: Neuropilin-1 (Homo sapiens)
ASSIGNED_CATEGORY: 0

MOLECULE: CC(C)(C)OC(=O)NCc1ccc(CNC(=O)c2nc[nH]c2C(=O)N2CCN(C(=O)OC(C)(C)C)CC2)cc1
MEASURED_TARGET: Neuropilin-1 (Homo sapiens)
ASSIGNED_CATEGORY: 0

----------
# MEASURED_TARGET: Neuropilin-1 (Homo sapiens) (UniProt O14786)
# Sequence (O14786 whole entry, looked up): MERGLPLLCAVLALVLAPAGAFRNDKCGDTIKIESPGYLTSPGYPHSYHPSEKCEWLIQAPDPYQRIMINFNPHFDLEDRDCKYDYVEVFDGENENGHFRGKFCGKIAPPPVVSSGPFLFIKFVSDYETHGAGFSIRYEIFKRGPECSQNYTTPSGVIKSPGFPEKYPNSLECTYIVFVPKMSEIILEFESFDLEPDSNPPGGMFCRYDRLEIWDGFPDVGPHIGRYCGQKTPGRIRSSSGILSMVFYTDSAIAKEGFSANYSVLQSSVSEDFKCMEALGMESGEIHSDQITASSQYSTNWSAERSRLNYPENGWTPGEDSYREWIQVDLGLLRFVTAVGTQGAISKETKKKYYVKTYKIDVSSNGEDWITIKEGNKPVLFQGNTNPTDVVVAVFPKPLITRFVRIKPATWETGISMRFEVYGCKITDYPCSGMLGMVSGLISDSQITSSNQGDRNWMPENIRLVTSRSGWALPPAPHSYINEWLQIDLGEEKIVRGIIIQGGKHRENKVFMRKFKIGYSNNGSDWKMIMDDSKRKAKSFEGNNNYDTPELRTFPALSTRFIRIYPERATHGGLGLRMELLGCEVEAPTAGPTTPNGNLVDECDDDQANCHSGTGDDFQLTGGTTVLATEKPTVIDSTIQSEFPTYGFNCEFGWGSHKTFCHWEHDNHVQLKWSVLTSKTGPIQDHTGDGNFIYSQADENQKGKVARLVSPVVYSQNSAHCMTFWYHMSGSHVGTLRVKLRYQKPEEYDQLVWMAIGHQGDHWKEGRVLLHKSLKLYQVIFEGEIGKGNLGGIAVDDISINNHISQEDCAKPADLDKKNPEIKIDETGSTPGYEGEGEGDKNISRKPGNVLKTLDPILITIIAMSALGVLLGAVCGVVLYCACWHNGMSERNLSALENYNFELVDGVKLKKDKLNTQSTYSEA
# TEST_PROTOCOL: NRP-1 b1b2 CendR peptide binding inhibitors, dose response, biochemical, FP and AlphaScreen panel (AID 651650)
# MEASUREMENT_CONTEXT: NRP-1 b1b2 / RPARPAR peptide binding, FP or AlphaScreen; AlphaScreen, run 1; individual panel run IC50
PROPERTY_NAME: IC50

COMPOUND: CN(c1ccc(OCC(=O)OCC(=O)Nc2ccc([N+](=O)[O-])cc2)cc1)S(=O)(=O)c1cccs1
PROPERTY_NAME: IC50
REPORTED_VALUE: 44.1 µM
//
COMPOUND: Cc1nc2c(OCCC3CCCCC3)cccn2c1N(C)C(=O)CCC1CCCC1
PROPERTY_NAME: IC50
REPORTED_VALUE: > 100 µM
//
COMPOUND: COC(=O)C1=C(c2ccc(F)cc2OCc2ccccc2)C[C@@H]2CC[C@H]1N2C(=O)NCCNC(C)=O
PROPERTY_NAME: IC50
REPORTED_VALUE: 9.37 µM
//
COMPOUND: O=C(NC1CC1)c1ccc(COc2ccc(F)cc2)o1
PROPERTY_NAME: IC50
REPORTED_VALUE: > 100 µM
//
COMPOUND: O=C(NCCCN1CCCC(O)C1)c1cc(COc2ccc(F)cc2F)on1 (stereo unspecified)
PROPERTY_NAME: IC50
REPORTED_VALUE: > 100 µM
//
COMPOUND: O=C1C=CC(=O)C2C1C1(Cl)C(Cl)=C(Cl)C2(Cl)C1(Cl)Cl (stereo unspecified)
PROPERTY_NAME: IC50
REPORTED_VALUE: > 100 µM
//
COMPOUND: O=C(O)c1ccccc1CSc1ccccn1
PROPERTY_NAME: IC50
REPORTED_VALUE: 16.5 µM
//
COMPOUND: CCC1C2Cc3ccc(O)cc3C1(CC)CCN2C (stereo unspecified)
PROPERTY_NAME: IC50
REPORTED_VALUE: > 100 µM
//
COMPOUND: CC(C(=O)N1CCN(c2ccc(Cl)cc2)CC1)c1ncc(C(F)(F)F)cc1Cl (stereo unspecified)
PROPERTY_NAME: IC50
REPORTED_VALUE: > 100 µM
//
COMPOUND: CCN(CC)C(=O)c1cccc(-c2csc(C(NC(C)=O)c3cccc(OC)c3)n2)c1 (stereo unspecified)
PROPERTY_NAME: IC50
REPORTED_VALUE: > 100 µM
//
COMPOUND: C[C@@H]1CC=C[C@H]2[C@H]1C(=O)N(Cc1ccccc1)[C@H]2c1ccc(/C=C/c2ccccc2)cc1F
PROPERTY_NAME: IC50
REPORTED_VALUE: > 100 µM
//
COMPOUND: Nc1cc(S(=O)(=O)O)cc([N+](=O)[O-])c1O
PROPERTY_NAME: IC50
REPORTED_VALUE: 4.28 µM
//
COMPOUND: O=C(NNc1ncnc2c1cnn2-c1ccc(F)cc1)c1ccco1
PROPERTY_NAME: IC50
REPORTED_VALUE: > 100 µM
//
COMPOUND: Cc1ccc(Cl)cc1N1CCN(C(=O)c2cccc3c(=O)c(C)c(-c4ccccc4)oc23)CC1
PROPERTY_NAME: IC50
REPORTED_VALUE: > 100 µM
//
COMPOUND: OCC[C@H]1C[C@H](O)[C@@H](O)[C@]2(CCCCO2)O1
PROPERTY_NAME: IC50
REPORTED_VALUE: > 100 µM
//
COMPOUND: CCCCc1ccc(S(=O)(=O)N2CCC3(CC2)OCCO3)cc1
PROPERTY_NAME: IC50
REPORTED_VALUE: > 100 µM
//
COMPOUND: CCOC(=O)C1=CCN(S(=O)(=O)c2ccccc2Br)C1c1ccccc1 (stereo unspecified)
PROPERTY_NAME: IC50
REPORTED_VALUE: > 100 µM
//
COMPOUND: O=C(c1cccc(F)c1)N1CCN(c2ccc([N+](=O)[O-])c(N3CCCCC3)c2)CC1
PROPERTY_NAME: IC50
REPORTED_VALUE: > 100 µM
//
COMPOUND: COc1cc(Cn2nnc3ccccc32)cc(Br)c1O
PROPERTY_NAME: IC50
REPORTED_VALUE: > 100 µM
//
COMPOUND: O=C(O/N=C1/CCSc2ccccc21)c1ccccc1
PROPERTY_NAME: IC50
REPORTED_VALUE: > 100 µM
//
COMPOUND: O=C(Cn1ccc(NC(=O)OCc2ccccc2)nc1=O)NCCCn1ccnc1
PROPERTY_NAME: IC50
REPORTED_VALUE: > 100 µM
//
COMPOUND: Fc1cnc(N2CCOCC2)nc1N1CCOCC1
PROPERTY_NAME: IC50
REPORTED_VALUE: > 100 µM
//
COMPOUND: CC(=O)Nc1ccc2nc3c(=O)n(C)c(=O)n(C)c3nc2c1
PROPERTY_NAME: IC50
REPORTED_VALUE: 57.6 µM
//
COMPOUND: COc1ccc(CN2C(=O)c3ccccc3C2=O)cc1C(=O)Nc1ccccc1N1CCOCC1
PROPERTY_NAME: IC50
REPORTED_VALUE: > 100 µM
//
COMPOUND: Cc1ccc(Cn2c(C(C)Nc3nc(-c4ccc(Cl)c([N+](=O)[O-])c4)cs3)nc3cc(C(F)(F)F)ccc32)cc1 (stereo unspecified)
PROPERTY_NAME: IC50
REPORTED_VALUE: > 100 µM
//
COMPOUND: C=CCC1(CC=C)CCCN1C(=O)c1cc(COc2cccc(OC)c2)on1
PROPERTY_NAME: IC50
REPORTED_VALUE: > 100 µM
//
COMPOUND: O=C(CSc1nc2ccc(Cl)cc2[nH]1)NCCc1ccccc1
PROPERTY_NAME: IC50
REPORTED_VALUE: > 100 µM
//
COMPOUND: Cc1ccc(C)c(-n2c(SCC(=O)NC(C(=O)O)C(C)C)nnc2-c2cccc(Cl)c2)c1 (stereo unspecified)
PROPERTY_NAME: IC50
REPORTED_VALUE: > 100 µM
//
COMPOUND: O=C(NNC(=O)c1csc(N2CCOCC2)n1)c1ccc(=O)[nH]c1
PROPERTY_NAME: IC50
REPORTED_VALUE: > 100 µM
//
COMPOUND: C=CCOc1c(CNc2ncn[nH]2)cccc1OCC
PROPERTY_NAME: IC50
REPORTED_VALUE: > 100 µM
//
COMPOUND: CCC1=C(OC(=O)N(CC)CC)N2C(=O)OC(=NCC(=O)OC)[C@]2(Cc2ccccc2)[C@H]2C1=CC[C@H]1C(=O)N(CC(=O)OC)C(=O)[C@H]12
PROPERTY_NAME: IC50
REPORTED_VALUE: 64.8 µM
//
COMPOUND: COc1cccc(OCCNC(=O)Nc2cc(F)c(F)cc2Cl)c1
PROPERTY_NAME: IC50
REPORTED_VALUE: > 100 µM
//
COMPOUND: CC1(c2ccccc2)CC(C)(C)n2c(O)c(C3=NC(=S)NC3=O)c3cccc1c32 (stereo unspecified)
PROPERTY_NAME: IC50
REPORTED_VALUE: > 100 µM
//
COMPOUND: NC(=S)NNC(=S)Nc1ccccc1
PROPERTY_NAME: IC50
REPORTED_VALUE: > 100 µM
//
COMPOUND: CCn1c(=O)c(C(=O)NCCNCCO)c(O)c2ccccc21
PROPERTY_NAME: IC50
REPORTED_VALUE: > 100 µM
//
COMPOUND: O=C1CCC[C@@H]2Cc3nc4cc5c(cc4cc3[C@@H]3CCN1[C@H]23)OCO5
PROPERTY_NAME: IC50
REPORTED_VALUE: > 100 µM

Data origin: PubChem BioAssay AID651650
